Measured values drawn from ChEMBL document CHEMBL2401634 for this set.

tested.system: Proto-oncogene tyrosine-protein kinase receptor Ret (Homo sapiens, UniProt P07949)
Sequence (P07949 whole entry): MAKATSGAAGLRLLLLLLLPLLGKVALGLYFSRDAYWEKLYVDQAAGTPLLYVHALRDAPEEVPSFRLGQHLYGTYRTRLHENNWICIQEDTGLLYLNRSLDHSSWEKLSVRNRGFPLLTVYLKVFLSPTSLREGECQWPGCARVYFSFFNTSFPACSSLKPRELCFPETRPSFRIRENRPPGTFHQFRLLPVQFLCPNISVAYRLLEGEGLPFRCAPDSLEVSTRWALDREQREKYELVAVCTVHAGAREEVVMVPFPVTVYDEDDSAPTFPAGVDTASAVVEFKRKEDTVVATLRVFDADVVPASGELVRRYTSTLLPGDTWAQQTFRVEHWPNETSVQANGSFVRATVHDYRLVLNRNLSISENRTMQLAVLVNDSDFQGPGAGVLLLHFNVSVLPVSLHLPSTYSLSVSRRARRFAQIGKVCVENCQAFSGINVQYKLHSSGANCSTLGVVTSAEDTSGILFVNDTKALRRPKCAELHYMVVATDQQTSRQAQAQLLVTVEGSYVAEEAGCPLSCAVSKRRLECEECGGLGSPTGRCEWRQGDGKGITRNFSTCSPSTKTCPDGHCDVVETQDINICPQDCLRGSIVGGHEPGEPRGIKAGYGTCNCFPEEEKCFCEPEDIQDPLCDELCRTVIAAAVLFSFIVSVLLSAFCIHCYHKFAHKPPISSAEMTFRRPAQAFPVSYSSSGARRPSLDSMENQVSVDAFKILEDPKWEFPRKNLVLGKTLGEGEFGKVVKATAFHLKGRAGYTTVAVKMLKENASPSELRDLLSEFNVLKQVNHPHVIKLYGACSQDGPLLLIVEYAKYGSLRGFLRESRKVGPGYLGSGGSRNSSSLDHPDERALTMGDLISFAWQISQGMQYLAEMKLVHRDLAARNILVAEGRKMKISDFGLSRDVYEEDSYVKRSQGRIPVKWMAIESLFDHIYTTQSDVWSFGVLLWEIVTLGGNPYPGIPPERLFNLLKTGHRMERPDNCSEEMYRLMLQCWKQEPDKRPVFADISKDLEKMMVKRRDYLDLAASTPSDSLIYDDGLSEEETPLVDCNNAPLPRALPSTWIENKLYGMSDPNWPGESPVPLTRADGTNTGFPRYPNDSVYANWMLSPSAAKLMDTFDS
test.method.notes: Inhibition of RET (unknown origin)
pIC50: −log10 of the molar value.
measure.name: pIC50

Solved entries (count: 2):
smiles_data=CN1CCC(Nc2ccc3c(c2)/C(=C/c2cc4c([nH]2)CCN(C(=O)N2CCOCC2)C4)C(=O)N3)CC1 measure_name=pIC50 quantitative_readout=8.30
smiles_data=COc1ccc2c(c1)/C(=C/c1cc3c([nH]1)CCN(C(=O)CCN)C3)C(=O)N2 measure_name=pIC50 quantitative_readout=8.40

a: CC(=O)N1CCc2[nH]c(/C=C3\C(=O)Nc4ccc(OC(C)C)cc43)cc2C1
b: COc1ccc2c(c1)/C(=C/c1cc3c([nH]1)CCN(C(=O)N1CCN(C)CC1)C3)C(=O)N2
c: CC(=O)N1CCc2[nH]c(/C=C3\C(=O)Nc4ccc([N+](=O)[O-])cc43)cc2C1
Req: Reorder the items by pIC50, least to greatest. // respond by listing labels in the order requested
Resp: a, c, b
(a: 6.82, c: 7.14, b: 8.22)
